METHOD NOTES: PK of compound of Formula (Ia) after single subcutaneous dose of solution formulations in Wistar Han rats
Format: in vivo
CONDITION CONTEXT: male, Wistar Han, rat, plasma, sc, 50 mg/kg, 96.0 h; individual rats; SC 50 mg/kg; solution S, 500 mg/mL
REPORTED METRIC: concentration at 96 h (nM)

[[record]]
substance_smiles = "CC(C)(C#Cc1ccc(-c2ccc(Cl)c3c(NS(C)(=O)=O)nn(CC(F)(F)F)c23)c([C@H](Cc2cc(F)cc(F)c2)NC(=O)Cn2nc(C(F)(F)F)c3c2C(F)(F)[C@@H]2C[C@H]32)n1)S(C)(=O)=O"
reported_metric = "concentration at 96 h"
data_value = 105


Source: patent US11807625B2
